biological target: RORγ (Homo sapiens, UniProt P51449); construct: expressed in transfected cells; host or cells: 293FT cells (Invitrogen), expression vector pFN26A (Promega); assay: RORγ GAL4 reporter gene assay; format: cell-based; details: inhibition of RORγ activity, GAL4-RORγ-LBD luciferase reporter in 293FT cells, overnight incubation; read-out: mean pIC50 (converted)
Sequence (P51449 269-508 limits assumed): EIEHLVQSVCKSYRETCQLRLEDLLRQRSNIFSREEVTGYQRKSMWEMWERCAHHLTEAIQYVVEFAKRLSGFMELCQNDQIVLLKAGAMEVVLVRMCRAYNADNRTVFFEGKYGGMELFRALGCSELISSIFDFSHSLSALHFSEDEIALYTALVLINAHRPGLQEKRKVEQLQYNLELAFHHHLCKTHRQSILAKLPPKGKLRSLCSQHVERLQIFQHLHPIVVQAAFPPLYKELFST
In this section, each of the molecules is paired with its reported IC50.

Below, 5 molecules whose answers are already recorded.
# MOLECULE, ASSAY VALUE
measured = [
    ("CN1CCN(C(=O)c2ccc(NC(=O)Cc3ccc(S(=O)(=O)CC4CC4)cc3)cc2)C(c2ccccc2)C1 (stereo not shown)", "≤ 100 nM"),
    ("CCCN(CC1CC1)C(=O)c1ccc(NC(=O)Cc2ccc(S(=O)(=O)CC3CC3)cc2)cc1", "≤ 100 nM"),
    ("Cc1ccc(N(C(=O)c2ccc(NC(=O)Cc3ccc(S(=O)(=O)NC4CC4)cc3)cc2)C(C)(C)C2CCCO2)cc1 (stereo not shown)", "≤ 100 nM"),
    ("CCN(C(=O)c1ccc(NC(=O)Cc2ccc(S(=O)(=O)CC3CC3)nc2)cc1F)c1ccccc1", "≤ 100 nM"),
    ("CC(C)(C)N(C(=O)c1ccc(NC(=O)Cc2ccc(S(=O)(=O)CC3CC3)cc2)cc1)c1ccccc1", "≤ 10 nM"),
]

Enquiry: Provide the documented IC50 with RORγ (Homo sapiens, UniProt P51449) as the system for "O=C(Cc1ccc(S(=O)(=O)CC2CC2)cc1)Nc1ccc(C(=O)N(c2ccccc2)C2COC2)cc1"
Return: ≤ 10 nM

Enquiry: Would you mind doing "CN(C(=O)c1ccc(NC(=O)Cc2ccc(S(=O)(=O)CC3CC3)cc2)cc1Cl)c1ccccn1" as well?
Return: ≤ 1000 nM
